test system: PPARg:RXRa 270nM:90nM, anti-RXR (NR concentration 270 nM, RXRa partner concentration 90 nM); experiment: PBM binding z-score (relative to random genomic background probes); higher = stronger binding; sequences stand for … in GC…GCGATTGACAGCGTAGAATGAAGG

Residue codes: AGCGAAAGGTCGAGGTGAGTATAGAGAAAGGGAA
PBM binding z-score: 4.31
--
Residue codes: ATATGTAGGTTACCTGGGGTCATTCAGACTAGGC
PBM binding z-score: 6.14
--
Residue codes: CCTACTGGGTCAAAGGTCATTGATTCCAATGCTC
PBM binding z-score: 11.2
--
Residue codes: CGTCAAAGGTCAACTAAGGTAACGTAAAGCACGC
PBM binding z-score: 8.77
--
Residue codes: CGTCCAAGGTCAAGGTCAATGAAAGAGACTCGAA
PBM binding z-score: 6.84
--
Residue codes: CGTCCAAGGTTAAGGTCAGTGAAAGAGACTCGAA
PBM binding z-score: 2.6
--
Residue codes: CGAACTAGGTCGTCCAGGACAGTGAATACATTGA
PBM binding z-score: 1.89
--
Residue codes: CCTTAGGGGTCACGAGGTTATAGCACGACGAGCG
PBM binding z-score: 9.08
--
Residue codes: CCGAGTTGGTCAAGGTCACACACGCTATAGGTAC
PBM binding z-score: 3.37
--
Residue codes: GCTTAGGGGTCAAAGGTTATAGCATGAATAGAAT
PBM binding z-score: 9.66
--
Residue codes: CGTCCAAGGTCACAGAGGTCAGTGAATGCCGAGT
PBM binding z-score: 6.54
--
Residue codes: TACCCTAGGTCATTGGGCCAGTATAGTACGCATC
PBM binding z-score: 4.04

---

Below, each of the sequences is paired with its reported PBM binding z-score value.
test system: RARb:RXRa (NR concentration 270 nM, RXRa partner concentration 90 nM); assay: PBM binding z-score (relative to random genomic background probes); higher = stronger binding; sequences stand for … in GC…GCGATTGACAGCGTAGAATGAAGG

Residue codes: CGAACTAGGTCATTGACAGGACAGTGGATAGTAA
PBM binding z-score: 3.53
//
Residue codes: CGTCAAAGTTCAACTGAGGTAACGTAAAGCACGC
PBM binding z-score: 5.41
//
Residue codes: CGTCTAAGGTCATAGGAGGTCAGTGAAGACAGAT
PBM binding z-score: 5.66
//
Residue codes: ATCGAAAGGTCGACGCGGTGAGTATACACCGTTT
PBM binding z-score: 3.72
//
Residue codes: AATACAGGGTGACTAGGCCAGAGTAGGTACGAAT
PBM binding z-score: 0.856
//
Residue codes: ATATGTAGGTTAGCTGAGGTCATTCAGACTAGGC
PBM binding z-score: 3.34
//
Residue codes: AGAATGAGGTCATTAAGATCAGGGAATTGCGGTC
PBM binding z-score: 4.79
//
Residue codes: CCGAGGAGGTTACGAGGGGGCATTCAGTGCGAAT
PBM binding z-score: 2.89
//
Residue codes: ACTTACGGCTCAACGAGGTTATAGCACGCGTATA
PBM binding z-score: 0.165
//
Residue codes: TCTAGTCGGTCAAAGGTCACACACTCGAAATGCG
PBM binding z-score: 5.34
//
Residue codes: TCTATTAGTTGATTAGGGCAACCGAAACAGCGGA
PBM binding z-score: 0.953
//
Residue codes: GCTGCTAGGTCAACTGATGGTCACCTAAAGCTCG
PBM binding z-score: 4.24
//
Residue codes: TAGCCTAGGTCATGCGGGACAGTATAGTGTCGGC
PBM binding z-score: 3.72
//
Residue codes: CCTACGGGGCCACGAAAGGTCATTGATTCAGTGA
PBM binding z-score: 4.55
//
Residue codes: CTATGTAGGTTACGGGGGTCATTCAGTTTGAAAG
PBM binding z-score: 3.71
//
Residue codes: CCGACGGGGGCAAAGGTTACCATACTCAGTACGA
PBM binding z-score: 3.84
//
Residue codes: CCTGCTAGGTCATGGTCAGCGAATCTACAGTATG
PBM binding z-score: 4.09
//
Residue codes: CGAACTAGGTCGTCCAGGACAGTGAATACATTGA
PBM binding z-score: 1.14
//
Residue codes: CCTTACGGGTCACTGACAGGTTATAGCGTTTGGA
PBM binding z-score: 3.88
//
Residue codes: AATACGGGGTCATCGTAGGCCAGAGTACGCACAG
PBM binding z-score: 5.09
//
Residue codes: TATACAGGGTCAAAGGCCAAAGTACGAATGTCGA
PBM binding z-score: 4.76
//
Residue codes: TGTCAACGTTCAAAGGTAACGTAAGTATCCACAC
PBM binding z-score: 1.46
//
Residue codes: GGAACGAGGGCATTCGAGTTCATAGCATGGCGAT
PBM binding z-score: 2.75
//
Residue codes: CGAACTAGGTCATTGACAGGACAATGAATAGTAA
PBM binding z-score: 3.77
//
Residue codes: CAAACCAGGTCAAAGGTCAAAGTCGAGCCAACCA
PBM binding z-score: 5.8
//
Residue codes: TCTTGTAGATCGATAGAGGTTAAGAAAGTGCGCT
PBM binding z-score: 0.661

---

test system: PPARg:RXRa 90nM:30nM, anti-RXR (NR concentration 90 nM, RXRa partner concentration 30 nM); experiment: PBM binding z-score (relative to random genomic background probes); higher = stronger binding; sequences stand for … in GC…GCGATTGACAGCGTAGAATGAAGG
Measured metric: PBM binding z-score

Residue codes: ATCGAAAGGTCGAAGGTGAGCATACCCACCCGAA
Value measured: 4.36
--
Residue codes: TAGCCTAGGTCATACAGGGGCCAGTATAGAAAGC
Value measured: 1.62
--
Residue codes: ATCGAAAGGTCAACGAGGTGAGTATACACCGTTT
Value measured: 7.2
--
Residue codes: AAAACAGGGTCATCGTAGGCCAGAGTACGCACAG
Value measured: 5.89
--
Residue codes: GATACAGGGTCAAGGTCAGAGTACGCGTATTGAT
Value measured: 5.8
--
Residue codes: GCTTACGGGTCAAAGGTCATAGCATGAATAGAAT
Value measured: 12.5
--
Residue codes: CGAACGAGGTCATTGACAGGACAGTGAATAGTAA
Value measured: 6.21
--
Residue codes: AGAATGAGATTACCAAAGATCAGGGAAACGCTTG
Value measured: 0.0878
--
Residue codes: CCGAGTAGGTTACGAGGGGTCATTCAGTGCGAAT
Value measured: 3.54
--
Residue codes: AATACAGGGTCATCTTAGGCCAGAGTACGCACAG
Value measured: 4.59
--
Residue codes: CGAACTAGGTCGAGGACAGTGAATCTCCGCACGC
Value measured: 1.23
--
Residue codes: TAGCCTAGGTTATGGGCCAGTATACCACGCGAAC
Value measured: 0.388

---

Below, each of the sequences is paired with its reported PBM binding z-score value.
system: FXR:RXRa (NR concentration 270 nM, RXRa partner concentration 90 nM); experiment: PBM binding z-score (relative to random genomic background probes); higher = stronger binding; sequences stand for … in GC…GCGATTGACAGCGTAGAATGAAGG
Measured metric: PBM binding z-score

Residue codes: CCTACTGGGCCACTAAAGGTCATTGATTCAGTGA
Assay target: FXR:RXRa (NR concentration 270 nM, RXRa partner concentration 90 nM)
Measured metric: PBM binding z-score
Value measured: 3.27
//
Residue codes: CCTTACGGGTCACTCCAGGTTATATCATCGGAGT
Assay target: FXR:RXRa (NR concentration 270 nM, RXRa partner concentration 90 nM)
Measured metric: PBM binding z-score
Value measured: 4.99
//
Residue codes: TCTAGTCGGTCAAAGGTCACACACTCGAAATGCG
Assay target: FXR:RXRa (NR concentration 270 nM, RXRa partner concentration 90 nM)
Measured metric: PBM binding z-score
Value measured: 6.97
//
Residue codes: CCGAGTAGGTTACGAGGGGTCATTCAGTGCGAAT
Assay target: FXR:RXRa (NR concentration 270 nM, RXRa partner concentration 90 nM)
Measured metric: PBM binding z-score
Value measured: 4.94
//
Residue codes: AGAATGAGGTTACTAAAGATCAGGGAAACGCTTG
Assay target: FXR:RXRa (NR concentration 270 nM, RXRa partner concentration 90 nM)
Measured metric: PBM binding z-score
Value measured: 1.18
//
Residue codes: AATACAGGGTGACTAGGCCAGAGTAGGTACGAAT
Assay target: FXR:RXRa (NR concentration 270 nM, RXRa partner concentration 90 nM)
Measured metric: PBM binding z-score
Value measured: 0.201

---

test system: THRa:RXRa (NR concentration 90 nM, RXRa partner concentration 90 nM); experiment: PBM binding z-score (relative to random genomic background probes); higher = stronger binding; sequences stand for … in GC…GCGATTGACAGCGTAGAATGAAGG
PBM binding z-score of 3 or higher: criterion met. Under 3: criterion not met.

Residue codes: ACTCGGATGACAAAGGTCAGAGCTACGCCAGTGA
Class name: criterion not met

Residue codes: GCTGCTAGTTCAACTGATGGTCAGCTAAAGCTCG
Class name: criterion not met

Residue codes: CGAACTAGGTCATCCAGGACCGTGAATACATTGA
Class name: criterion met

Residue codes: CAAACTAGGTCAAGGTCTAAGTCGGTTTGTGCCA
Class name: criterion met

Residue codes: CAAACAAGGTCACGAAAGGTCAAAGTCGAATGAC
Class name: criterion met

Residue codes: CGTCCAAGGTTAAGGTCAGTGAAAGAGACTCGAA
Class name: criterion met

Residue codes: TCTGCTAGGTCAACGTTGGTCAGCTAATCTGCTA
Class name: criterion met

Residue codes: GGAACGAGGTCATTCGAGTTGATAGCATGGCGAT
Class name: criterion met
